Tested on: HUVEC
Experiment: Antiinflammatory activity in HUVEC assessed as inhibition of TNF-alpha-induced cell surface ICAM1 expression at 60 ug/ml preincubated before TNFalpha challenge measured after 16 hrs by ELISA
Format: functional
Conditions: Homo sapiens
Consider the following compounds and their measured inhibition at 60 µg/mL readings.

{"Compound": "CC1=NN(c2ccccc2)C(=O)C1C(=O)c1ccco1 (stereo unspecified)", "Readout Unit": "%", "inhibition at 60 µg/mL": 55}
{"Compound": "Cc1[nH]n(-c2ccccc2)c(=O)c1C(=O)CC(C)(C)C", "Readout Unit": "%", "inhibition at 60 µg/mL": 35}
{"Compound": "CC1=NN(c2ccccc2)C(=O)C1C(=O)CCC1CCCC1 (stereo unspecified)", "Readout Unit": "%", "inhibition at 60 µg/mL": 35}
{"Compound": "CC1=NN(c2ccccc2)C(=O)C1C(=O)c1ccccc1 (stereo unspecified)", "Readout Unit": "%", "inhibition at 60 µg/mL": 75}
{"Compound": "CC(=O)C1C(=O)N(c2ccccc2)N=C1c1ccccc1 (stereo unspecified)", "Readout Unit": "%", "inhibition at 60 µg/mL": 20}
{"Compound": "CC1=NN(c2ccccc2)C(=O)C1C(=O)C(C)(C)C (stereo unspecified)", "Readout Unit": "%", "inhibition at 60 µg/mL": 60}
